System: HEK293FT dCK*-only
Assay notes: relative growth in counter assay (no AraC = 100%, AraC + DMSO = 0%); higher = more growth rescue independent of IKZF1
Details: compound concentration: 5 uM; AraC concentration: 0.3 uM; overnight pretreatment + 4 days AraC
Returns one of satisfied or not satisfied; satisfied when relative growth in counter assay is >= -30%.

Fc1ccc(C(OCCN2CCN(C/C=C/c3ccccc3)CC2)c2ccc(F)cc2)cc1
satisfied

Please tell me: is the compound `C[C@]12CC[C@H](O)C[C@H]1CC[C@@H]1[C@@H]2C[C@@H](O)[C@]2(C)[C@@H](C3=CC(=O)OC3)CC[C@]12O` at or over -30% in terms of relative growth in counter assay?
not satisfied

Please tell me: is the compound `OC1=[C@]([C@]2=C(O)C(C(C=O)=C(O)C(O)=C3C(C)C)=C3C=C2C)C(C)=CC4=C1C(C=O)=C(O)C(O)=C4C(C)C` at or over -30% in terms of relative growth in counter assay?
not satisfied

Please tell me: is the compound `Oc1c(I)cc(I)cc1I` at or over -30% in terms of relative growth in counter assay?
satisfied

* * *

System tested: IKZF1 (dCK*-IKZF1 fusion in HEK293FT)
Assay notes: inhibition of IKZF1 HTRF signal (DMSO = 0%, pomalidomide 10 uM = 100%); higher = lower IKZF1 protein level
Details: compound concentration: 5 uM, overnight (~20 h)
Reported inhibition of IKZF1 HTRF signal values for the following molecules.
The answer should read as a number with its unit following.

Worked cases, inhibition of IKZF1 HTRF signal given:
C[C@]12CC[C@H](O)C[C@H]1CC[C@@H]1[C@@H]2C[C@@H](O)[C@]2(C)[C@@H](C3=CC(=O)OC3)CC[C@]12O
22.7%
Cc1cc(C(C#N)c2ccc(Cl)cc2)c(Cl)cc1NC(=O)c1cc(I)cc(I)c1O (stereo not given)
-5.04%
C=C(C)CN1CC[C@]23c4c5ccc(O)c4O[C@H]2c2[nH]c4ccccc4c2C[C@@]3(O)C1C5
-30.3%

I would be grateful if you could share the reported inhibition of IKZF1 HTRF signal for `c1ccc(CCCN2CCN(CCOC(c3ccccc3)c3ccccc3)CC2)cc1` .
-28.8%

I would be grateful if you could share the reported inhibition of IKZF1 HTRF signal for C[C@H]1O[C@@H](O[C@H]2[C@@H](O)C[C@H](O[C@H]3[C@@H](O)C[C@H](O[C@H]4CC[C@@]5(C)[C@H](CC[C@@H]6[C@@H]5C[C@@H](O)[C@]5(C)C(c7coc(O)c7)CC[C@]65O)C4)O[C@@H]3C)O[C@@H]2C)C[C@H](O)[C@@H]1O (stereo not given in full) .
84.1%

I would be grateful if you could share the reported inhibition of IKZF1 HTRF signal for CCOc1ccccc1-n1c(C(C)N2CCN(C(=O)COc3ccc(Cl)cc3)CC2)nc2ccccc2c1=O (stereo not given) .
-51.3%

I would be grateful if you could share the reported inhibition of IKZF1 HTRF signal for `COc1cc2c(c(OC)c1OC)-c1ccc(OC)c(=O)cc1[C@@H](NC(C)=O)CC2` .
17.9%

I would be grateful if you could share the reported inhibition of IKZF1 HTRF signal for CCCCC1(C2CCCC2)Cc2cc(OCCCC(=O)O)c(Cl)c(Cl)c2C1=O (stereo not given) .
-38.8%

I would be grateful if you could share the reported inhibition of IKZF1 HTRF signal for `Cc1cc(O)c2c(=O)c3c(O)cc(O)c4c5c(O)cc(O)c6c(=O)c7c(O)cc(C)c8c1c2c(c34)c(c78)c65` .
13.4%

I would be grateful if you could share the reported inhibition of IKZF1 HTRF signal for CC[C@@]1(C2O[C@@H](C3O[C@@](O)(CO)[C@H](C)C[C@@H]3C)C[C@@H]2C)CC[C@H]([C@]2(C)CC[C@]3(C[C@H](O)[C@@H](C)[C@@H]([C@@H](C)[C@@H](OC)[C@H](C)C(=O)O)O3)O2)O1 (stereo not given in full) .
9.03%

I would be grateful if you could share the reported inhibition of IKZF1 HTRF signal for `COc1cc([C@@H]2c3cc4c(cc3[C@H](O)[C@H]3COC(=O)[C@H]23)OCO4)cc(OC)c1OC` .
50%

I would be grateful if you could share the reported inhibition of IKZF1 HTRF signal for c1ccc2c(c1)Sc1ccccc1N2CC1CN2CCC1CC2 (stereo not given) .
10.6%

I would be grateful if you could share the reported inhibition of IKZF1 HTRF signal for `c1ccc2c(c1)sc1ccccc12` .
-33.1%

I would be grateful if you could share the reported inhibition of IKZF1 HTRF signal for `ClC(C=C3)=C(Cl)C=[C@@]3[C@H]2C1=CC=CC=C1[C@H](NC)C2` .
28.4%

I would be grateful if you could share the reported inhibition of IKZF1 HTRF signal for `COc1cc2cc(c1Cl)N(C)C(=O)C[C@H](OC(=O)C(C)C)[C@]1(C)O[C@H]1[C@H](C)[C@@H]1C[C@@](O)(NC(=O)O1)[C@H](OC)/C=C/C=C(\C)C2` .
-18.7%
